Test system: stress-induced gastric ulcer in rats
assayText: Protective effect on gastric ulcer induced by restraint plus water-immersion stress in rats
Format: in vivo, male Sprague-Dawley rats
reportedConditions: Rattus norvegicus, stress-induced ulcer, 10 mg/kg po, series with control 26.2 ± 1.6 mm
Lab note: compare inhibition in vivo at 10 mg/kg against 70%. Equal or greater, write y. Smaller, write n.

Confirm if inhibition in vivo at 10 mg/kg reported for the compound CCCn1c(=O)c2c(ncn2CCCC(O)C(C)O)n(CC)c1=O (centres unmarked) is 70% or above. y

Request: CCn1c(=O)n(CC(C)=O)c(=O)c2c1ncn2CCCCC(O)CO (centres unmarked) n

Likewise for CC(=O)Cn1c(=O)c2c(ncn2CCCCC(C)O)n(C)c1=O (centres unmarked) ? n

Now give it for CCn1c(=O)n(CC(C)O)c(=O)c2c1ncn2CCCCC(O)CO (centres unmarked) too. n

// switching to the query compound
Entry CCCn1c(=O)c2c(ncn2CCCCCC(O)CO)n(CC)c1=O (centres unmarked) : is its inhibition in vivo at 10 mg/kg no less than 70%? n

Source: patent US5082845A
